- TARGET_OR_SYSTEM: Sucrase-isomaltase, intestinal (Rattus norvegicus) (UniProt P23739)
- Sequence (P23739 1-1013 limits assumed): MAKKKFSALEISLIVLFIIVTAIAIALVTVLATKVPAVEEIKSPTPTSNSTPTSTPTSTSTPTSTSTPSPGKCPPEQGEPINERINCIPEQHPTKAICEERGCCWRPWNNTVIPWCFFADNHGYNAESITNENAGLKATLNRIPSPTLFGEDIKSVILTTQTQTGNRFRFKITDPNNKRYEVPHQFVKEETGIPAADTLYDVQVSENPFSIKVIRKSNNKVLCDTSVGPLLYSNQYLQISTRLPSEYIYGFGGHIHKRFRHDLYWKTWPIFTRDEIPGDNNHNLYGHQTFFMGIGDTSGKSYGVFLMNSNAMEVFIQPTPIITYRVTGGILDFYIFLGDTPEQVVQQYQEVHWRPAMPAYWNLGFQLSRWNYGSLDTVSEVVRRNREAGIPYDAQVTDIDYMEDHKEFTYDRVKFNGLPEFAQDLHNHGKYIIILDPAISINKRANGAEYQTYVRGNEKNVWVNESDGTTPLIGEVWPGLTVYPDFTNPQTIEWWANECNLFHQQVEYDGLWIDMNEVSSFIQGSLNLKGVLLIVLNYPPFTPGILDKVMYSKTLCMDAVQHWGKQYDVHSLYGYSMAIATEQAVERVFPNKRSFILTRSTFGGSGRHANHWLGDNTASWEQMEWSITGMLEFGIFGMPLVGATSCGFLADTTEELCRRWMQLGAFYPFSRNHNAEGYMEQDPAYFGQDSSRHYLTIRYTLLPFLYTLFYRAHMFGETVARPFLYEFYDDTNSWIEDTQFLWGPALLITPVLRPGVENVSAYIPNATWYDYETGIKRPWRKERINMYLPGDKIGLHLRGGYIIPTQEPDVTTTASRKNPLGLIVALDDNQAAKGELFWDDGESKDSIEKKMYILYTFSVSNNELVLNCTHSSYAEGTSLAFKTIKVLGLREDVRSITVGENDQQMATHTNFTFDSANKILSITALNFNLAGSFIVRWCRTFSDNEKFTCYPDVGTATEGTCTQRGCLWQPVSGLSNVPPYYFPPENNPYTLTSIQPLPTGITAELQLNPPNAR
- Sequence (P23739 1014-1841 limits assumed): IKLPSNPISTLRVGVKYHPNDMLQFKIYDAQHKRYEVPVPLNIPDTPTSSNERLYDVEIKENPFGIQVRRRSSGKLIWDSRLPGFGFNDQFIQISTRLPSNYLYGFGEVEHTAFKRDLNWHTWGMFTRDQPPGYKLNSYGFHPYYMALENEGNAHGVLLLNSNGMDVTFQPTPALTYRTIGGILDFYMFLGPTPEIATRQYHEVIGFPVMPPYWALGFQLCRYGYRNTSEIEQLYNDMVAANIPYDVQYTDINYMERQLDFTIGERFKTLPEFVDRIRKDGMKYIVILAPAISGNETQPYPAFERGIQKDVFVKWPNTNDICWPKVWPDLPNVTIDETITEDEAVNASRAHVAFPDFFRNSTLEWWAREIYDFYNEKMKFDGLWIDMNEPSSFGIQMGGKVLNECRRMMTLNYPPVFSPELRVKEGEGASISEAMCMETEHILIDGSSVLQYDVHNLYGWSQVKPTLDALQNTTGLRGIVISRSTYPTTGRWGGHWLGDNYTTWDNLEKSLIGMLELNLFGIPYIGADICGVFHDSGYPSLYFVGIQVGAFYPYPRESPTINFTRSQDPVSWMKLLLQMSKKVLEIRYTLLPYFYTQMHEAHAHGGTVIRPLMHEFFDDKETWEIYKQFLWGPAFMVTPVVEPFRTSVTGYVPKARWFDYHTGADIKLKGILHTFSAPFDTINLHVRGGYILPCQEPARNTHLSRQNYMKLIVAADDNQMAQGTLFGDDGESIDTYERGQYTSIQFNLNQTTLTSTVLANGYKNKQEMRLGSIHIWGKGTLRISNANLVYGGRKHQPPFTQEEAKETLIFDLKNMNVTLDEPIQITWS
- ASSAY_REMARKS: Inhibition of rat intestinal sucrase using p-nitrophenyl-alpha-d-glucopyranoside as substrate at 1 mM incubated for 10 mins prior to substrate addition measured after 5 mins by spectrophotometry
ASSAY_READOUT: inhibition (%)
Dear colleague, please return just the value in %, with no unit written.

Example compounds with recorded inhibition:
{"columns": ["COMPOUND", "TARGET_OR_SYSTEM", "ASSAY_READOUT", "VALUE_UNIT", "OBSERVED_RESULT"],
 "data": [
  ["CC1(C)[C@@H](O)CC[C@]2(C)[C@H]3CC[C@@H]4C=C[C@H](O)[C@@]4(C)[C@]3(C)CC[C@@H]12", "Sucrase-isomaltase, intestinal (Rattus norvegicus) (UniProt P23739)", "inhibition", "%", 40],
  ["CC1(C)C=C(C=O)[C@]2(C)[C@H]3CC=C4[C@@H]5[C@H](O)C(C)(C)CC[C@]5(C(=O)O)CC[C@@]4(C)[C@]3(C)CC[C@@H]12", "Sucrase-isomaltase, intestinal (Rattus norvegicus) (UniProt P23739)", "inhibition", "%", 32.4]
]}

Problem: Report inhibition for Oc1cc(O)c2c(c1)O[C@H](c1ccc(O)c(O)c1)[C@H](O)C2 [(-)-EPICATECHIN] please.
Result: 61.9

Problem: Now the compound Oc1ccc([C@H]2Oc3cc(O)ccc3[C@H](c3c(O)cc(O)c4c3O[C@H](c3ccc(O)c(O)c3)[C@H](O)C4)[C@H]2O)cc1
Result: 68.4

Problem: Now the compound C[C@H]1[C@H](C)CC[C@]2(C(=O)O)CC[C@]3(C)C(=CC[C@@H]4[C@@]5(C)CC[C@H](O)C(C)(C)[C@@H]5CC[C@]43C)[C@H]12
Result: 32
